Would you kindly list growth inhibition for each of these compounds?
# experimentalProtocol: NCI Yeast Anticancer Drug Screen. Data for the rad50 strain (AID 155);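 also: 0% = growth of vehicle-only cultures of the same strain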
# runConditions: S. cerevisiae rad50 strain growth inhibition; at 50.0 µM; hits give high values
This is part of a sample that, as a whole, favours compounds with a hit. Of some 79,000 tested, about 15% had one in any assay. The source made the active and inactive calls. Rule as the data show it: active = growth inhibition above about 70%; inactive = the rest.

compound	growth inhibition
C/C=C1\CN2CCC1CC2C(O)c1ccnc2ccc(O)cc12 (stereo not given)	-3.6% (inactive)
O=[N+]([O-])c1ccc(/C=C/C=C/C=C/C=C/c2ccc(S(=O)(=O)F)cc2Cl)c(Cl)c1	-1.05% (inactive)
O=C(O)C(O)CO.[Pb] (stereo not given)	-1.95% (inactive)

Please give growth inhibition, item by item, for the list that follows.
1. C/C=C1/CN2CCC1CC2C(O)c1ccnc2ccc(OCCO)cc12 (stereo not given)
2. O=P(OCCCl)(OCCCl)OCCCl

RESULT:
1. -8.4% (inactive)
2. -12.1% (inactive)

###

# experimentalProtocol: NCI Yeast Anticancer Drug Screen. Data for the mlh1 rad18 strain (AID 175)
# runConditions: S. cerevisiae mlh1 rad18 strain growth inhibition; at 50.0 µM
This is part of a sample that, as a whole, favours compounds with a hit. Of some 79,000 tested, about 15% had one in any assay. Calls of active or inactive are those of the source. No stated cut-off is given here; in the data, active means growth inhibition above about 70%; inactive means the rest.
Please reply with one of these outcomes: t = active, f = inactive

compound	class
CCCCCCCCP(=O)(O)OP(=O)(O)OCC1OC(n2ccc(N)nc2=O)C(O)C1O (centres undefined)	f
CO[C@@]12[C@@H]3N[C@@H]3CN1C1=C(C(=O)C(Nc3ccc(O)cc3C)=C(C)C1=O)[C@@H]2COC(N)=O	t
ClCCN(CCCl)c1ccc(/C=N/c2nc(-c3ccccc3)cs2)cc1	f

QUERY: I'd appreciate the recorded outcome for "CCOC(=O)OC1(c2ccccc2)CCN(C)CC1" from this test.
RESULT: f

###

# experimentalProtocol: NCI Yeast Anticancer Drug Screen. Data for the cln2 rad14 strain (AID 165);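 also: 0% = growth equal to vehicle treated cultures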
# runConditions: S. cerevisiae cln2 rad14 strain, at 50.0 µM, hits give high values
About 79,000 compounds went through this panel and 15% of them were active in at least one assay; those are over-represented in the sample as a whole.
assayMetric: growth inhibition (%)
Answers are plain numbers, in %.

Before answering, review these 5 worked examples.
compound	growth inhibition [%]
CN(C)CCN1C(=O)CN=C(c2ccccc2Cl)c2cc(Cl)ccc21	2.75
CCN(CC)P(=O)(N1CC1(C)C)N1CC1(C)C (centres undefined)	2.35
CCOP(=S)(OCC)S/C(C(=O)NC)=C(/C)O	65.1
OC1(c2ccccc2)C2CCN(CC2)C1CN1CCOCC1 (centres undefined)	4.05
CCCCC[CH2][Sn](=[O])[CH2]CCCCC	-24.6

Fill in growth inhibition for each of the 4 compounds listed.
1. COc1ccccc1CCN
2. COc1ccc(S(=O)(=O)F)cc1N
3. CC(C)CCC1C(=O)NC(=O)NC1=O
4. O=C(Oc1cc(Cl)c(S(=O)(=O)F)cc1Cl)c1ccc([N+](=O)[O-])cc1

RESULT:
1: -14.3; 2: 4.35; 3: 8.1; 4: 64.8

###

# experimentalProtocol: NCI Yeast Anticancer Drug Screen. Data for the mec2-1 strain (AID 157)
# runConditions: S. cerevisiae mec2-1 strain, at 50.0 µM, hits give high values
Compounds without any hit were thinned out: in the full panel of roughly 79,000, 15% have a hit.
assayMetric: growth inhibition (%)
One number for each entry, in %.

Below are worked cases with known answers.
molecule	displayUnit	growth inhibition
ClCc1ccc(Cl)c(Cl)c1	%	3.8
PCc1ccccc1.[Cl][Hg][Cl]	%	12.7
CC1CCC2C(C)C3C(CC4C5CCC6CC(O)CCC6(C)C5CCC43C)N2C1 (stereo not given)	%	23.4

Okay, here is my list. What is growth inhibition for each of these?
1. O=S1(=O)OCCO1
2. O=[N+]([O-])c1cccc2cccnc12

RESULT:
1: -9; 2: -13.8
